test system: Staphylococcus aureus; assay: Antimicrobial activity against Staphylococcus aureus CIP 76.25 by microdilution method in presence of 50% human serum; format: functional
Readout: MIC (µg/mL)
Numbers only, in µg/mL.

# count of solved cases: 2
Compound | Tgt | MIC (µg/mL)
CC(=O)O[C@H]1C[C@@]2(C)[C@@H](C[C@@H](O)[C@H]3[C@@]4(C)CC[C@@H](O)[C@@H](C)[C@@H]4CC[C@@]32C)/C1=C(\CCC=C(C)C)C(=O)O | Staphylococcus aureus | 1020
CC[C@H]1OC(=O)[C@H](C)[C@@H](O[C@H]2C[C@@](C)(OC)[C@@H](O)[C@H](C)O2)[C@H](C)[C@@H](O[C@@H]2O[C@H](C)C[C@H](N(C)C)[C@H]2O)[C@](C)(O)C[C@@H](C)C(=O)[C@H](C)[C@@H](O)[C@]1(C)O | Staphylococcus aureus | 2

In the following, a different compound is considered.
For CC1COc2c(N3CCN(C)CC3)c(F)cc3c(=O)c(C(=O)O)cn1c23 (stereo not drawn) , what is its reported MIC? 2

---

molecular target: Albumin (Homo sapiens); assay: Binding affinity to first site on human serum albumin by SPR
Sequence (P02768 whole entry): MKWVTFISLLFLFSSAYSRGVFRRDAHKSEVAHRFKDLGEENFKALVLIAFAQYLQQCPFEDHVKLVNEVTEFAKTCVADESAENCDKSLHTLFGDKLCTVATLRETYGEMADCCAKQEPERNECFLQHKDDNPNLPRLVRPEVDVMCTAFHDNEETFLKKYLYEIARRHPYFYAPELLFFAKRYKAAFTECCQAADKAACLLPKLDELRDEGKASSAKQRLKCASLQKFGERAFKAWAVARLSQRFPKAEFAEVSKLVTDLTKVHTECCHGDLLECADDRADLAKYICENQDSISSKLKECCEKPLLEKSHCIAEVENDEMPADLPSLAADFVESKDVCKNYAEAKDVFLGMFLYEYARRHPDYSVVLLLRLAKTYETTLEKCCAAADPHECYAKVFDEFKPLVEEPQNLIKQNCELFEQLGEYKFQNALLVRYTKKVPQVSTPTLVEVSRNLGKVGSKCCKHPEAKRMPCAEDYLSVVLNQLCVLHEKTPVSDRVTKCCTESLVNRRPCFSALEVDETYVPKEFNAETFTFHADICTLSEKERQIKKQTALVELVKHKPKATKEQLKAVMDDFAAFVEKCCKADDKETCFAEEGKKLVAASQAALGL
Readout: pKd
Numbers only, as −log10 of the molar value.

For CCC[C@@H]1C[C@@H](C(=O)N[C@@H]([C@H]2O[C@H](SC)[C@H](O)[C@@H](O)[C@H]2O)[C@@H](C)O)N(C)C1 , what is its reported pKd? 4.92

---

Exercise: state measured MIC for each of the molecules provided.
tested on: Staphylococcus aureus; test: Antimicrobial activity against Staphylococcus aureus CIP 76.25 by microdilution method in presence of 50% human serum; format: functional
Give bare numbers, in µg/mL.

# count of solved cases: 2
Compound | Tgt | Quantitative Result
CN(C)c1ccc(O)c2c1C[C@H]1C[C@H]3[C@H](N(C)C)C(O)=C(C(N)=O)C(=O)[C@@]3(O)C(O)=C1C2=O | Staphylococcus aureus | 4
CO[C@@H]1[C@@H](OC(N)=O)[C@@H](O)[C@H](Oc2ccc3c(O)c(NC(=O)c4ccc(O)c(CC=C(C)C)c4)c(=O)oc3c2C)OC1(C)C | Staphylococcus aureus | 1020

For each entry beneath this line, provide reported MIC.
1. CCC[C@@H]1C[C@@H](C(=O)N[C@@H]([C@H]2O[C@H](SC)[C@H](O)[C@@H](O)[C@H]2O)[C@@H](C)O)N(C)C1
2. CO[C@H]1/C=C/O[C@@]2(C)Oc3c(C)c(O)c4c(O)c(c(/C=N/N5CCN(C)CC5)c(O)c4c3C2=O)NC(=O)/C(C)=C\C=C\[C@H](C)[C@H](O)[C@@H](C)[C@@H](O)[C@@H](C)[C@H](OC(C)=O)[C@@H]1C

[2, 4]

Give the reported MIC for CO/N=C(\C(=O)N[C@@H]1C(=O)N2C(C(=O)O)=C(COC(C)=O)CS[C@H]12)c1csc(N)n1 (system: Staphylococcus aureus). 4
